Here the recorded Kd is given for each entry.
# measured.on: T1, recombinant canine Nerve Growth Factor (Canis lupus familiaris NGF) (canine (Canis lupus familiaris), UniProt Q29074 110-229 (pig entry), limits assumed)
# T1 construct: also called canine NGF; Dog NGF
# T1 chain: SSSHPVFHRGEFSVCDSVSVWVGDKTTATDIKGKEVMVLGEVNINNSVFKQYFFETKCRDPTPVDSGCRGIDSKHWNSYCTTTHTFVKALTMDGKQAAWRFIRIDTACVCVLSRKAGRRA
# assay: SPR, Biacore T100, dog NGF; run 11/24; comment 'Agg?'

Worked cases, answers included:
1. LTM construct 110 (HC Y101W, G103A; LC K92D) (antibody, V domains shown, Point mutant of canE3M65 as full IgG) VH: EVQLVESGGDLARPGGSLKLSCVVSGFSLIGYDINWVRQAPGKGLQWVTMIWGDGTTDYNSALKSRFTVSRDNAMNTVYLQMNSLRVEDTAVYYCARGGYWYATSYYFDYWGQGTLVTVSS VL: DIVMTQTPLSLSVSPGETASISCRASQDISNHLNWFRQKPGQSPQRLIYYISRFHSGVPDRFSGSGSGTDFTLRISRVEADDTGVYYCQQSDTLPYTFGAGTKLEIK :: 3.26 pM
2. LTM135 (HC G103A, LC H32N) (antibody, V domains shown, Point mutant of canE3M65 as full IgG) VH: EVQLVESGGDLARPGGSLKLSCVVSGFSLIGYDINWVRQAPGKGLQWVTMIWGDGTTDYNSALKSRFTVSRDNAMNTVYLQMNSLRVEDTAVYYCARGGYYYATSYYFDYWGQGTLVTVSS VL: DIVMTQTPLSLSVSPGETASISCRASQDISNNLNWFRQKPGQSPQRLIYYISRFHSGVPDRFSGSGSGTDFTLRISRVEADDTGVYYCQQSKTLPYTFGAGTKLEIK :: 138 pM

Here is another binder to look at.
input: Entry under review: LTM construct 133 (HC G103A, LC K92H) (antibody, V domains shown, Point mutant of canE3M65 as full IgG) VH: EVQLVESGGDLARPGGSLKLSCVVSGFSLIGYDINWVRQAPGKGLQWVTMIWGDGTTDYNSALKSRFTVSRDNAMNTVYLQMNSLRVEDTAVYYCARGGYYYATSYYFDYWGQGTLVTVSS VL: DIVMTQTPLSLSVSPGETASISCRASQDISNHLNWFRQKPGQSPQRLIYYISRFHSGVPDRFSGSGSGTDFTLRISRVEADDTGVYYCQQSHTLPYTFGAGTKLEIK . Reported Kd?
output: 1.33 pM
